system: MLKL phosphorylation in HT29-L23 human colorectal adenocarcinoma cells; experiment: MLKL phosphorylation high-content assay; format: cell-based; details: Homo sapiens, 6 h, read-out: pMLKL IC50, HT29-L23 cells; necroptosis induced with TNFα, SMAC mimetic and Z-VAD, 6 h; maximal inhibition defined by Nec1s
pIC50: −log10 of the molar value.
Classification field: condition met = pIC50 at or over 9; condition not met = pIC50 under 9.

Would you please look over these solved cases?
Cc1ccc(-c2ccn3nc(N)nc3c2)c(F)c1C(=O)NCCC1(c2ccc(F)cc2)CC1 [Example 16]	condition met
COc1cc(Cl)ccc1C(O)CCNC(=O)c1c(C)ccc(-c2ccn3nc(N)nc3c2)c1F (single isomer, unassigned) [Example 65]	condition not met
Nc1nc2cc(-c3ccc(Cl)c(C(=O)NC[C@@H](F)[C@@H](O)c4ccc(F)cc4)c3F)ccn2n1 (single isomer, unassigned) [Example 298]	condition met
Cc1ccc(-c2ccn3nc(N)nc3c2)c(F)c1C(=O)NCCC(O)c1ccc(F)cc1 (single isomer, unassigned) [Example 50]	condition not met

Does the reported pIC50 for Cc1ccc(-c2ccn3nc(N)nc3c2)c(F)c1C(=O)NCC(F)(F)[C@@H](O)c1ccc(F)cc1 (single isomer, unassigned) [Example 30] fall at or above the 9 mark?
condition met

====

Let's look at some compounds and their measured pIC50.
Target: His-GST-TVMV-hRIPK1(1-324) (Homo sapiens, UniProt Q13546)
Construct: The coding region of human RIPK1(1-324) flanked by NdeI site at 5′ end; made in house; host or cells: Spodoptera frugiperda Sf9 insect cells (baculovirus, Bac-to-Bac)
Sequence (Q13546 1-324): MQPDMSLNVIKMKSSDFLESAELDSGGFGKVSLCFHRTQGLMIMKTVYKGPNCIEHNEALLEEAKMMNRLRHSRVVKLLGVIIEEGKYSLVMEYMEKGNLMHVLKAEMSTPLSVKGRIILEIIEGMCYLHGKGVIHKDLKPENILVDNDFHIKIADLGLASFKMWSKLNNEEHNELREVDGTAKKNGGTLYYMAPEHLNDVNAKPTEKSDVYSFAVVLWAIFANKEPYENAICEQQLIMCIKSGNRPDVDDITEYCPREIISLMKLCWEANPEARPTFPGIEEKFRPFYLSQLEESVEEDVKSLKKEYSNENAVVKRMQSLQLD
Experiment: biochemical
Type: binding
Conditions: Table 22, compounds of the present invention; read-out: RPIK1 IC50
Quick note: pIC50 means taking -log10 of the concentration in moles per liter.

# count of solved cases: 3
Cc1cc(F)c(-c2ccn3nc(N)nc3c2)cc1C(=O)NCCC(O)c1ccc(F)cc1 (single isomer, unassigned) [Example 10]	8.03
Cc1ccc(-c2ccn3nc(N)nc3c2)c(F)c1C(=O)NCCC(O)c1ccc(F)cc1 (centres unmarked)	8.60
Nc1nc2cc(-c3ccc(Cl)c(C(=O)NCCC(O)c4ccc(F)cc4)c3F)ccn2n1 (centres unmarked)	7.72

Which pIC50 value belongs to `Cc1ccc(-c2ccn3nc(N)nc3c2)cc1C(=O)NCC[C@H](O)c1ccc(Cl)cc1` ?
8.09

Which pIC50 value belongs to `Cc1ccc(-c2ccn3nc(N)nc3c2)c(F)c1C(=O)NCC[C@H](O)c1ccc(Cl)cc1` ?
8.46

Which pIC50 value belongs to Cc1ccc(-c2ccn3nc(N)nc3c2)c(F)c1C(=O)NCC(O)C(F)(F)c1ccc(F)cc1 (single isomer, unassigned) [Example 291] ?
9.00

Which pIC50 value belongs to Cc1ccc(-c2ccn3nc(N)nc3c2)c(F)c1C(=O)NCC(O)C(F)(F)c1ccc(F)cc1 (single isomer, unassigned) [Example 290] ?
8.32

Which pIC50 value belongs to Cc1ccc(-c2ccn3nc(N)nc3c2)c(F)c1C(=O)NCCC(O)c1ccc(F)c(F)c1 (single isomer, unassigned) ?
8.36
